Attribute: log10(IC50)
# measurement target: Histone-lysine N-methyltransferase EHMT2 (Homo sapiens)
# Sequence (Q96KQ7 whole entry): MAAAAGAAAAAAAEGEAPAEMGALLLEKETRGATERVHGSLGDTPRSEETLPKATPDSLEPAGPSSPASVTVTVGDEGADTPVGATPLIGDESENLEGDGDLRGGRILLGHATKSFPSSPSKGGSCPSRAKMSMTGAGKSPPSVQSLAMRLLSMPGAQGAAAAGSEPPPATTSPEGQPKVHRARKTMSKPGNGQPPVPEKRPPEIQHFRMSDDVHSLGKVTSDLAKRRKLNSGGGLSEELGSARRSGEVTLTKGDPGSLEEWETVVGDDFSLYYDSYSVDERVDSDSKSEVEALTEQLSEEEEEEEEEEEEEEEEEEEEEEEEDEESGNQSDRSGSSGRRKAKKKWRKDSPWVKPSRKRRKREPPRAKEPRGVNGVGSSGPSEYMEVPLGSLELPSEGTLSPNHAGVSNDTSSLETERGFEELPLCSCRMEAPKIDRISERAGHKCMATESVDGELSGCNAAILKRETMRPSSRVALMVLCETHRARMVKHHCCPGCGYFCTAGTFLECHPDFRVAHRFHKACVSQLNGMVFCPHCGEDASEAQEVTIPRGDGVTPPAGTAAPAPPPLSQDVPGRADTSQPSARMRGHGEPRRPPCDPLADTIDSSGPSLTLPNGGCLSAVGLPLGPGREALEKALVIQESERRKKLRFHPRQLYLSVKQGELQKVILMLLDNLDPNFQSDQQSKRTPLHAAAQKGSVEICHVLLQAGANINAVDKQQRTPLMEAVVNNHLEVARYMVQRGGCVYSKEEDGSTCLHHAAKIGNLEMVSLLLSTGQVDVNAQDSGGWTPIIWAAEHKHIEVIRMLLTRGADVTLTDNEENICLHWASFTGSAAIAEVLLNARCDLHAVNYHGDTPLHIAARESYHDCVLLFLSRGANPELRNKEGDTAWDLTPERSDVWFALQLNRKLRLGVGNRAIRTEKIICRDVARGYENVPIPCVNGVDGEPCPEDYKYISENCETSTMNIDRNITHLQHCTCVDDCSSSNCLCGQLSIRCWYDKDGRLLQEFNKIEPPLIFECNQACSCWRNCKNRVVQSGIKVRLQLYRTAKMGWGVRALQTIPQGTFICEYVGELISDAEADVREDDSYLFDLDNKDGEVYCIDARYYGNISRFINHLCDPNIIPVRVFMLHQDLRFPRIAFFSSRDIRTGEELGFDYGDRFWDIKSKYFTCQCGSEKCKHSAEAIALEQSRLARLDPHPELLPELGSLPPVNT
# procedure details: Inhibition of HMT-G9a using S-adenosylmethionine and biotinylated H3 peptide after 1 hr
test readout: log10(IC50) (log10 of the value in µM)

INSERT INTO measurements (compound, test_readout, endpoint_result) VALUES
  ('CN1C(=O)[C@]23CC4=CC=C[C@H](O)[C@H]4N2C(=O)[C@@]1(CO)SS3 [GLIOTOXIN]', 'log10(IC50)', 0.81),
  ('CN1C(=O)[C@]23Cc4cccc(O)c4N2C(=O)[C@@]1(CO)SS3', 'log10(IC50)', 0.41),
  ('CN1C(=O)[C@]23Cc4ccccc4N2C(=O)[C@@]1(CO)SS3', 'log10(IC50)', 1.74),
  ('CN1C(=O)[C@]23CC4=CC=C[C@H](O)[C@H]4N2C(=O)[C@@]1(CO)SSSS3 [GLIOTOXIN G]', 'log10(IC50)', 0.32),
  ('CS[C@]1(CO)C(=O)N2c3c(O)cccc3C[C@@]2(SC)C(=O)N1C [DEHYDROBIS(METHYLTHIO)GLIOTOXIN]', 'log10(IC50)', 1.76);
